ratio IC50 hV2/hV1a values for the compounds below.
- TARGET_SYSTEM: human V1a receptor (Homo sapiens)
- Construct: expressed in transfected cells; host or cells: CHO K1 (ATCC), also stably transfected with a modified aequorin
- PROCEDURE_DETAILS: Cellular in vitro assay for determining vasopressin receptor activity, V1a receptor cell line (CHO, aequorin luminescence)
- Assay type: cell-based
- EXPERIMENTAL_PARAMETERS: selectivity ratio IC50 hV2 / IC50 hV1a

Example cases with answers are listed next.
Enquiry: Requested read-out: ratio IC50 hV2/hV1a. Entry: `O=C(Cc1ccccc1)Nc1ncccc1-n1cnc(Cn2nc(-c3ccc(Cl)cc3)n(C[C@H](O)C(F)(F)F)c2=O)n1`
Return: 15.2

Enquiry: Requested read-out: ratio IC50 hV2/hV1a. Entry: `O=C(Nc1ncccc1-n1cnc(Cn2nc(-c3ccc(Cl)cc3)n(C[C@H](O)C(F)(F)F)c2=O)n1)C1CC(F)(F)C1`
Return: 270.7

Enquiry: Requested read-out: ratio IC50 hV2/hV1a. Entry: `O=C(c1ccccc1-n1cnc(Cn2nc(-c3ccc(Cl)cc3)n(C[C@H](O)C(F)(F)F)c2=O)n1)N1CC(O)C1`
Return: 92.9

Enquiry: Requested read-out: ratio IC50 hV2/hV1a. Entry: `O=C(c1ncccc1-n1cnc(Cn2nc(-c3ccc(Cl)cc3)n(C[C@H](O)C(F)(F)F)c2=O)n1)N1CCC[C@@H]1C(F)(F)F`
Return: 9.3

Enquiry: Requested read-out: ratio IC50 hV2/hV1a. Entry: `Cc1csc(NC(=O)c2ccccc2-n2cnc(Cn3nc(-c4ccc(Cl)cc4)n(C[C@H](O)C(F)(F)F)c3=O)n2)n1`
Return: 22.0

Enquiry: Requested read-out: ratio IC50 hV2/hV1a. Entry: `CC(C)(C)NC(=O)c1ccccc1-n1cnc(Cn2nc(-c3ccc(Cl)cc3)n(C[C@H](O)C(F)(F)F)c2=O)n1`
Return: 5.0

Enquiry: Requested read-out: ratio IC50 hV2/hV1a. Entry: `CC(C)(C)CC(=O)Nc1ncccc1-n1cnc(Cn2nc(-c3ccc(Cl)cc3)n(C[C@H](O)C(F)(F)F)c2=O)n1`
Return: 360.2

Enquiry: Requested read-out: ratio IC50 hV2/hV1a. Entry: `Cc1ccc(NC(=O)c2ccccc2-n2cnc(Cn3nc(-c4ccc(Cl)cc4)n(C[C@H](O)C(F)(F)F)c3=O)n2)c(F)c1`
Return: 61.3

***
Enquiry: Requested read-out: ratio IC50 hV2/hV1a. Entry: `Cc1ccn(CC(=O)Nc2ncccc2-n2cnc(Cn3nc(-c4ccc(Cl)cc4)n(C[C@H](O)C(F)(F)F)c3=O)n2)n1`
Return: 6.6

Enquiry: Requested read-out: ratio IC50 hV2/hV1a. Entry: `O=C(NCCC(F)(F)F)c1cccnc1-n1nc(Cn2nc(-c3ccc(Cl)cc3)n(C[C@H](O)C(F)(F)F)c2=O)nc1C(=O)N1CCS(=O)(=O)CC1`
Return: 29.7

Enquiry: Requested read-out: ratio IC50 hV2/hV1a. Entry: `O=C(c1ccccc1-n1cnc(Cn2nc(-c3ccc(Cl)cc3)n(C[C@H](O)C(F)(F)F)c2=O)n1)N1CCCCC1`
Return: 600.0

Enquiry: Requested read-out: ratio IC50 hV2/hV1a. Entry: `CC(C)(N)CNC(=O)c1ccccc1-n1cnc(Cn2nc(-c3ccc(Cl)cc3)n(C[C@H](O)C(F)(F)F)c2=O)n1`
Return: 608.2

Enquiry: Requested read-out: ratio IC50 hV2/hV1a. Entry: `O=C(CN1CCCCC1)Nc1ncccc1-n1cnc(Cn2nc(-c3ccc(Cl)cc3)n(C[C@H](O)C(F)(F)F)c2=O)n1`
Return: 15.5

Enquiry: Requested read-out: ratio IC50 hV2/hV1a. Entry: `O=C(NCCF)c1ccccc1-n1cnc(Cn2nc(-c3ccc(Cl)cc3)n(C[C@H](O)C(F)(F)F)c2=O)n1`
Return: 33.4

Enquiry: Requested read-out: ratio IC50 hV2/hV1a. Entry: `Cc1nnc(NC(=O)c2ccccc2-n2cnc(Cn3nc(-c4ccc(Cl)cc4)n(C[C@H](O)C(F)(F)F)c3=O)n2)s1`
Return: 3.3

Enquiry: Requested read-out: ratio IC50 hV2/hV1a. Entry: `Cc1cccc(C(=O)Nc2ncccc2-n2cnc(Cn3nc(-c4ccc(Cl)cc4)n(C[C@H](O)C(F)(F)F)c3=O)n2)n1`
Return: 125.7

Enquiry: Requested read-out: ratio IC50 hV2/hV1a. Entry: O=C(Nc1ncccc1-n1cnc(Cn2nc(-c3ccc(Cl)cc3)n(C[C@H](O)C(F)(F)F)c2=O)n1)[C@@H]1C[C@@H]1F (racemic)
Return: 362.4

Enquiry: Requested read-out: ratio IC50 hV2/hV1a. Entry: `O=c1n(Cc2ncn(-c3cnccc3NCCC(F)(F)F)n2)nc(-c2ccc(Cl)cc2)n1C[C@H](O)C(F)(F)F`
Return: 0.4

Enquiry: Requested read-out: ratio IC50 hV2/hV1a. Entry: `NC(=O)[C@@H]1CC(F)(F)CN1C(=O)c1cccc(Cl)c1-n1cnc(Cn2nc(-c3ccc(Cl)cc3)n(C[C@@H](O)C(F)(F)F)c2=O)n1`
Return: 106.3

====

- TARGET_SYSTEM: human V1a receptor (Homo sapiens, UniProt P37288)
- Sequence (P37288 whole entry): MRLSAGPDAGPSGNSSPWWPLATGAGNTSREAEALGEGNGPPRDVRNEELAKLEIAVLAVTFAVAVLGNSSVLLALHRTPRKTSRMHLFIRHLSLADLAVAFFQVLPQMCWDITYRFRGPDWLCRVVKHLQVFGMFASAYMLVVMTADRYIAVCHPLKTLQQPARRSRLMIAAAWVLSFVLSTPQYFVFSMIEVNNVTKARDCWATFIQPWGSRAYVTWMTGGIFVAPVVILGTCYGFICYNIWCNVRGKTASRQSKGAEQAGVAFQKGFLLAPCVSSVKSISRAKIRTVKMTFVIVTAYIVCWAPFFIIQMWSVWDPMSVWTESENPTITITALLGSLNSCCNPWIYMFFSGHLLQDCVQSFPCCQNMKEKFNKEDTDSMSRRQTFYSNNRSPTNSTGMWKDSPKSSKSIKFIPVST
- PROCEDURE_DETAILS: Cellular in vitro assay for determining vasopressin receptor activity, V1a receptor cell line (CHO, aequorin luminescence)
- EXPERIMENTAL_PARAMETERS: CHO cell line transfected with human V1a receptor; [Arg]-vasopressin at EC50 concentration; read-out: IC50 hV1a
log10(IC50) values for the molecules below.
Values are log10 of IC50 in nM.

Enquiry: Requested read-out: log10(IC50). Entry: `NC(=O)[C@H]1CCN(C(=O)c2ccccc2-n2cnc(Cn3nc(-c4ccc(Cl)cc4)n(C[C@H](O)C(F)(F)F)c3=O)n2)C1`
Return: 1.05

Enquiry: Requested read-out: log10(IC50). Entry: `NC(=O)[C@@H]1CC(F)(F)CN1C(=O)c1ncccc1-n1cnc(Cn2nc(-c3ccc(Cl)cc3)n(C[C@H](O)C(F)(F)F)c2=O)n1`
Return: 1.91

Enquiry: Requested read-out: log10(IC50). Entry: CC1=NOC(C)(C(=O)Nc2ncccc2-n2cnc(Cn3nc(-c4ccc(Cl)cc4)n(C[C@H](O)C(F)(F)F)c3=O)n2)C1 (stereo partly shown)
Return: 2.00

Switching to the query record.
Enquiry: Requested read-out: log10(IC50). Entry: `CC1(C)CN(C(=O)c2ccccc2-n2cnc(Cn3nc(-c4ccc(Cl)cc4)n(C[C@H](O)C(F)(F)F)c3=O)n2)CCO1`
Return: 0.76

====

- TARGET_SYSTEM: human V2 receptor (Homo sapiens, UniProt P30518)
- Construct: expressed in transfected cells; host or cells: CHO K1 (ATCC) expressing firefly luciferase under a CRE-responsive promoter
- Sequence (P30518 whole entry): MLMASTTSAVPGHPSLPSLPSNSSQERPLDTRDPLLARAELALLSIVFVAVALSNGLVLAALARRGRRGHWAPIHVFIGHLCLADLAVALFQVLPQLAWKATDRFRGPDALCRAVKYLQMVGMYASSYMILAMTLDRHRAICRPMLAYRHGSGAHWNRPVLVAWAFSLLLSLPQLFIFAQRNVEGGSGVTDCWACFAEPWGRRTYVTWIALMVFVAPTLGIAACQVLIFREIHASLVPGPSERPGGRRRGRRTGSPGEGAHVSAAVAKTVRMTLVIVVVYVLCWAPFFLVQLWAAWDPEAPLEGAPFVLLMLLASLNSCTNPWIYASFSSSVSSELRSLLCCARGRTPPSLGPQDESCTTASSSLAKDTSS
- PROCEDURE_DETAILS: Cellular in vitro assay for determining vasopressin receptor activity, V2 receptor cell line (CHO, CRE-luciferase)
- Type: cell-based
- EXPERIMENTAL_PARAMETERS: CHO cell line transfected with human V2 receptor; [Arg8]-vasopressin at EC50 concentration, 3 hours; read-out: IC50 hV2
PROPERTY: IC50 (µM)
Please state the figure in µM; there is no need to write the unit.

Example cases with answers are listed next.
Enquiry: Requested read-out: IC50. Entry: `O=C(Nc1ncccc1-n1cnc(Cn2nc(-c3ccc(Cl)cc3)n(C[C@H](O)C(F)(F)F)c2=O)n1)C1CC1`
Return: 0.57

Enquiry: Requested read-out: IC50. Entry: `CN1CCN(C(=O)c2ccccc2-n2cnc(Cn3nc(-c4ccc(Cl)cc4)n(C[C@H](O)C(F)(F)F)c3=O)n2)CC1=O`
Return: 4.25

Enquiry: Requested read-out: IC50. Entry: `Cc1nnsc1C(=O)Nc1ncccc1-n1cnc(Cn2nc(-c3ccc(Cl)cc3)n(C[C@H](O)C(F)(F)F)c2=O)n1`
Return: 1.5

***
Enquiry: Requested read-out: IC50. Entry: `Cc1ccc(CNC(=O)c2ccccc2-n2cnc(Cn3nc(-c4ccc(Cl)cc4)n(C[C@H](O)C(F)(F)F)c3=O)n2)o1`
Return: 0.13

Enquiry: Requested read-out: IC50. Entry: `O=C(Nc1ncccc1-n1cnc(Cn2nc(-c3ccc(Cl)cc3)n(C[C@H](O)C(F)(F)F)c2=O)n1)c1cncc(F)c1`
Return: 0.505

Enquiry: Requested read-out: IC50. Entry: `CC(C)(C)C(=O)Nc1ncccc1-n1cnc(Cn2nc(-c3ccc(Cl)cc3)n(C[C@H](O)C(F)(F)F)c2=O)n1`
Return: 1.05

Enquiry: Requested read-out: IC50. Entry: `CC[C@H](C)NC(=O)c1ccccc1-n1cnc(Cn2nc(-c3ccc(Cl)cc3)n(C[C@H](O)C(F)(F)F)c2=O)n1`
Return: 0.119

Enquiry: Requested read-out: IC50. Entry: `O=C(Nc1nncs1)c1ccccc1-n1cnc(Cn2nc(-c3ccc(Cl)cc3)n(C[C@H](O)C(F)(F)F)c2=O)n1`
Return: 0.0815
